Values from paper PMC8076300

target: cystathionine γ-lyase (CSE) (Homo sapiens); assay: methylene blue H2S production assay with purified recombinant CSE, L-cysteine substrate
Sequence (P32929 whole entry): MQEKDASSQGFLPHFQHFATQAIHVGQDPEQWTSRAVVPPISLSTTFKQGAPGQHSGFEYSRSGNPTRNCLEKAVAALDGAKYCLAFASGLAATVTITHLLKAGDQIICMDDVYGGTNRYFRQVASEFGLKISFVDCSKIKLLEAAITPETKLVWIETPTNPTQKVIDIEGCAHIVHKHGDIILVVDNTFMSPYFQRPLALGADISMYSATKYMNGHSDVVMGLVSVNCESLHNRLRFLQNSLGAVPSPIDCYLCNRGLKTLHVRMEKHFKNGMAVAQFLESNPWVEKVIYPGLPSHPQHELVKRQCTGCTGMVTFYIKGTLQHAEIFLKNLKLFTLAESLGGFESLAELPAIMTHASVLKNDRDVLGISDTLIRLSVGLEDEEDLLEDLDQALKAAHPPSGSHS
pIC50: −log10 of the molar value.

compound	pIC50
COc1ccc(-c2cc(C(F)F)n3ncc(C(=O)Nc4ccc(S(=O)(=O)Nc5ccccc5OC)cc4)c3n2)cc1 [I194496]	3.10
